target: c-Met kinase domain recombinant protein (Homo sapiens, UniProt P08581); construct: 50 μL diluted solution of c-Met kinase domain recombinant protein in reaction buffer was added to initiate the reaction; test: biochemical; conditions: read-out: Inhibition rate at 10 μM (%)
Sequence (P08581 1078-1345 limits assumed): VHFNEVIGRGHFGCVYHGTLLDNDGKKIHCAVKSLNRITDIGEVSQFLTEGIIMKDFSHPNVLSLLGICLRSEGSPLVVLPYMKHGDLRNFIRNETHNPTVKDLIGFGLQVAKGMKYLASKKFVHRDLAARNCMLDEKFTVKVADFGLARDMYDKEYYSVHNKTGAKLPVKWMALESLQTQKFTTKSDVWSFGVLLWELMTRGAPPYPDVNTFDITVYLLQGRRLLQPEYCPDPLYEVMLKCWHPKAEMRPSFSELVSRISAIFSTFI
endpoint label: inhibition at 10 µM

chemical_string=CC(C)Oc1ccc(-c2ccc3ncc(S(=O)(=O)n4ncc5ncc(-c6cnn(C)c6)cc54)n3c2)cc1 readout_value="> 83.1%"
chemical_string=CN(C)C(=O)c1ccc(-c2cnc3cnn(S(=O)(=O)c4cnc5ccccn45)c3c2)cc1 readout_value=68.7%
chemical_string=CC(C)(C)OC(=O)N1CCC(n2cc(-c3cnc4cnn(S(=O)(=O)c5cnc6ccc(C(F)(F)F)cn56)c4c3)cn2)CC1 readout_value=83.2%
chemical_string=Cn1cc(-c2cnc3cnn(S(=O)(=O)c4cnc5ccc(-c6ccc(F)cc6)cn45)c3c2)cn1 readout_value="> 68.7%"
chemical_string=Cn1cc(-c2cnc3cnn(S(=O)(=O)c4cnc5ccc(-c6ccc(C#N)cc6)cn45)c3c2)cn1 readout_value="> 71.9%"
chemical_string=O=S(=O)(c1cnc2ccccn12)n1ncc2ncc(-c3cnn(C4CCNCC4)c3)cc21 readout_value=89.6%
chemical_string=Cn1cc(-c2cnc3cnn(S(=O)(=O)c4cnc5ccc(-c6ccc(CN7CCOCC7)cc6)cn45)c3c2)cn1 readout_value="> 69.4%"
